Recorded IC50, one value per entry.
Molecular target: Farnesyl-protein transferase (FTase) (Bos taurus, UniProt P29702+P49355)
Construct: Farnesyl-protein transferase (FTase) from bovine brain was chromatographed
Experiment: In Vitro Inhibition of Ras Farnesyl Transferase (inhibition of Ras-CVLS farnesylation)
Settings: partially purified bovine brain FTase; Ras-CVLS 3.5 μM, 0.25 μM [3H]FPP
State just the number; it will be interpreted in µM.

CCCCCCCCCCCCCC/C(C(=O)O)=C(/C)C(=O)O    7.7

Turning now to a further compound:
Farnesyl-protein transferase (FTase) (Bos taurus, UniProt P29702+P49355) IC50 of C=C(C(=O)O)C(CCCCCCCCCCCCCC)C(=O)O (centres unmarked) is 1.7
